# assayed.system: Cytochrome P450 1A2 (Homo sapiens)
# protocol: p450-cyp1a2 (AID 410)
# measurement.context: recombinant CYP1A2, luciferin-ME demethylation, luminescence; series mostly up to 11.4 µM
Records with an inconclusive call do not appear. Active and inactive are the calls of the source. Calls come from the whole dose curve.
Outcome codes: active, inactive

{"columns": ["molecular.string", "assayed.system", "cat"],
 "data": [
  ["CO[C@@H]1CC=C2CCN3CCC4=C(CC(=O)OC4)[C@]23C1", "Cytochrome P450 1A2 (Homo sapiens)", "inactive"],
  ["[N-]=[N+]=CC(=O)CC[C@H](N)C(=O)O", "Cytochrome P450 1A2 (Homo sapiens)", "inactive"],
  ["C[C@H](Br)C(=O)N[C@H](CO)C(=O)O", "Cytochrome P450 1A2 (Homo sapiens)", "inactive"],
  ["CN1C[C@H](C(=O)N[C@@]2(C)O[C@@]3(O)[C@H]4CCCN4C(=O)[C@@H](Cc4ccccc4)N3C2=O)C=C2c3cccc4[nH]cc(c34)C[C@@H]21", "Cytochrome P450 1A2 (Homo sapiens)", "active"],
  ["CN[C@H]1[C@H](C)O[C@@H](O[C@@H]2C/C=C(/C)C/C(C)=C\\C=C/CC[C@@H](C)CNC(=O)/C=C\\C=C/[C@H]2C)C[C@@H]1O", "Cytochrome P450 1A2 (Homo sapiens)", "inactive"],
  ["COc1cc(CCN)c(OC)c(OC)c1", "Cytochrome P450 1A2 (Homo sapiens)", "active"],
  ["CCNC(=O)[C@@H]1O[C@@H](n2cnc3c(N)ncnc32)[C@@H](O)[C@H]1O", "Cytochrome P450 1A2 (Homo sapiens)", "inactive"],
  ["CCOC(=O)[C@@H]1[C@@H]2c3ccccc3-c3ccccc3[C@H]2C[C@H]1O", "Cytochrome P450 1A2 (Homo sapiens)", "active"],
  ["O=C(Nc1cc[c]([Sb](=[O])([OH])[OH])cc1)c1ccccc1", "Cytochrome P450 1A2 (Homo sapiens)", "active"]
]}

---

# protocol: Cell Viability - LYMP2-001 (AID 921);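 note: cells exposed to compound for 24 h at 37 °C; nearly all actives have a fitted effect of over 70% in size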
# measurement.context: LYMP2-001 lymphoblastoid cell viability; series mostly up to 92.2 µM
Records with an inconclusive call do not appear. The source made the active and inactive calls. Calls come from the whole dose curve; as a rule, active = well fitted cell-killing curve with a large enough effect; inconclusive = small, poorly fitted or top-dose-only effect; inactive = no such curve, though single readings can be large or run the other way.

{"columns": ["molecule", "outcome"],
 "data": [
  ["CC(C)(C)C(O)(CCc1ccc(Cl)cc1)Cn1cncn1 (stereo unspecified)", "inactive"],
  ["Oc1cc(Cl)c(Cl)c(Cl)c1Cl", "inactive"],
  ["Nc1cc(Cl)cc(C(=O)O)c1Cl", "inactive"],
  ["Cc1ccc(N=C=O)cc1N=C=O", "inactive"],
  ["CN(C)C(=O)Nc1cccc(C(F)(F)F)c1", "inactive"],
  ["c1ccc(P(c2ccccc2)c2ccccc2)cc1", "inactive"],
  ["O=[N+]([O-])c1cc(Cl)c(Cl)cc1Cl", "inactive"],
  ["C=CC(=O)OC", "inactive"],
  ["O=C(O)c1cccc(Cl)c1", "inactive"],
  ["O=C(O)C(Cl)(Cl)Br", "inactive"],
  ["C=CC(=O)OCC(CC)CCCC (stereo unspecified)", "inactive"],
  ["C/C=C/CC#N", "inactive"],
  ["Nc1ccc(Oc2ccc(N)cc2)cc1", "inactive"],
  ["Nc1ccc(-c2ccc(N)cc2)cc1", "inactive"],
  ["CCCCOCC1CO1 (stereo unspecified)", "inactive"],
  ["Nc1cc(Cl)ccc1O", "inactive"],
  ["Cc1ccc(N)c(C)c1", "inactive"],
  ["CCCBr", "inactive"],
  ["c1ccc(C2CO2)cc1 (stereo unspecified)", "inactive"],
  ["Oc1c(Cl)cccc1Cl", "inactive"],
  ["CN=C=O", "inactive"],
  ["O=C(O)CCl", "inactive"],
  ["C1CC2OC2CC1C1CO1 (stereo unspecified)", "inactive"],
  ["COc1ccccc1N", "inactive"],
  ["CCC[N+](=O)[O-]", "inactive"],
  ["c1ccc(NNc2ccccc2)cc1", "inactive"],
  ["Nc1ccc(Cc2ccc(N)c(Cl)c2)cc1Cl", "inactive"],
  ["ClCC(Cl)CCl", "inactive"],
  ["c1ccoc1", "inactive"],
  ["COP(=S)(OC)SCn1nnc2ccccc2c1=O", "inactive"],
  ["CC(C)C#N", "inactive"]
]}
